Items are presented alongside their recorded MG% (mean growth percent).
Tested on: 59 cancer cell lines
Assay: NCI cytotoxicity screen, full panel
Format: cell-based, human
Conditions: 10.0 μM one dose; 59 cell lines
ASSAY READOUT: MG% (mean growth percent) (%)

COMPOUND: Cc1ccc(NC(=O)c2ccc(CN3CCN(C)CC3)cc2)cc1Nc1nccc(-c2cccnc2)n1 [Imatinib, reference compound]
REPORTED RESULT: 92.62
--
COMPOUND: COc1cc(C(C)=NNC(=O)CSc2nc3ccccc3c(=O)n2Cc2ccc(S(N)(=O)=O)cc2)cc(OC)c1OC
REPORTED RESULT: 97.44
--
COMPOUND: COc1cc(OC)cc(C(C)=NNC(=O)CSc2nc3ccccc3c(=O)n2Cc2ccc(S(N)(=O)=O)cc2)c1
REPORTED RESULT: 88.4
--
COMPOUND: Cc1ccc(C=NNC(=O)CSc2nc3ccccc3c(=O)n2Cc2ccc(S(N)(=O)=O)cc2)cc1
REPORTED RESULT: 88.5
